Each recorded value in this set is attributed to patent US20150086555A1.

targetUnderTest: recombinant soluble homotrimeric HA, A/swine/Ontario/01911-2/99 H4N6 (Influenza A virus A/Swine/Ontario/01911-2/99 (H4N6))
assayProtocol: microarray, transfection SN IgG, trimeric HA
testSettings: remark: other sources report otherwise
readoutName: Trimeric HA Binding: RLU (RLU)

{"columns": ["binder", "readoutName", "unitAbbrev", "measuredResult"],
 "data": [
  ["TCN-557 (5081_A04) (antibody, V domains shown) VH: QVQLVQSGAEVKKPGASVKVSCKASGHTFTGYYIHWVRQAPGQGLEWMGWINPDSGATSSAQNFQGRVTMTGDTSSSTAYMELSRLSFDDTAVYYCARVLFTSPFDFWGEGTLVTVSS VL: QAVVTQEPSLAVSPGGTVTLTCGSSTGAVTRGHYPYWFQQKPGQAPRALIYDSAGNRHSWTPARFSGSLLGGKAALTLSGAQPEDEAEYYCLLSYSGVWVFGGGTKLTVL", "Trimeric HA Binding: RLU", "RLU", 41500],
  ["TCN-558 (5248_H10b) (antibody, V domains shown) VH: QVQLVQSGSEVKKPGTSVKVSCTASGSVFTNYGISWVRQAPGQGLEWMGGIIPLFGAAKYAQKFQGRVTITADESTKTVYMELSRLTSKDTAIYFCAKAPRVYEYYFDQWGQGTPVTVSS VL: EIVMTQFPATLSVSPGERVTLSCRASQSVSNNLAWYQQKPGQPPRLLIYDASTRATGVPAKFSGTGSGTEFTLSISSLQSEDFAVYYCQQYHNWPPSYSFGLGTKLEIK", "Trimeric HA Binding: RLU", "RLU", 10000],
  ["TCN-547 (5092_F11) (antibody, V domains shown) VH: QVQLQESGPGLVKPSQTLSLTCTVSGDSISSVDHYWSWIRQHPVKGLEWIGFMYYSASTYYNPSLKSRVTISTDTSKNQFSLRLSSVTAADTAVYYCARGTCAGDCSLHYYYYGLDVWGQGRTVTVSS VL: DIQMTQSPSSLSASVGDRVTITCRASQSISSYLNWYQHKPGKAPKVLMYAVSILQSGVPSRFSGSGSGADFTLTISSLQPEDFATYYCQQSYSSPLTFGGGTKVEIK", "Trimeric HA Binding: RLU", "RLU", 1600]
]}
